test: small molecules captured by biotinylated probe aFGF2 – biochemical, small-molecule microarray, fluorescence 635/667, stem cell growth factor project, primary screen (AID 1067); conditions: higher = more signal;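 note: measures binding of biotinylated aFGF2 protein to printed compounds on slides; z-score merges feature fluorescence and signal-to-noise across triplicate slides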
Quick reference for composite z-score among some compounds

# annotated cases, reported composite z-score shown
compound=C=CC[C@@]1(C(=O)NCc2ccccc2)N=C(c2ccc(OCCCO)cc2)O[C@@H]1c1ccccc1CN=[N+]=[N-] value_reported=0.153
compound=C=CCN1Cc2ccccc2C[C@@]2(COC(c3ccc(OCCCO)cc3)=N2)C1=O value_reported=-0.0159
compound="CCOC(=O)N1C(c2ccc(OCCCO)cc2)=NC(C(=O)OC)N1C(=O)OCC (stereo unspecified)" value_reported=0.0794
compound="O=C1C2C=CC(C(O)c3ccc(Br)cc3)N(n3cnnc3)C2C(=O)N1Cc1ccccc1 (stereo unspecified)" value_reported=0.0488
compound=COCCOC(=O)N1C(=O)[C@@]2(c3cc(C#Cc4ccc(OC)cc4)ccc31)[C@H](c1ccc(O)cc1)N1[C@H](c3ccccc3)[C@H](c3ccccc3)OC(=O)[C@H]1[C@@H]2C(=O)N1CCN(c2ncccn2)CC1 value_reported=-0.0225
compound=C=CCOC(=O)[C@H]1[C@@H]2C(=O)O[C@@H](c3ccccc3)[C@@H](c3ccccc3)N2[C@@H](c2ccc(OCCOC(=O)[C@@H]3C[C@@H]4C(=O)NCC(=O)N4[C@@H]3c3ccc(O)cc3)cc2)[C@]12C(=O)Nc1ccc(I)cc12 value_reported=0.0364
compound=COc1ccc([Si](C)(C)[C@@H]2[C@@H](CCO)O[C@]3(C(=O)N(Cc4cccc(N(C=O)c5ccccc5)c4)c4ccccc43)[C@H]2C)cc1 value_reported=-0.0784
compound=CCOC(=O)C=Cc1cccc(OC)c1O value_reported=-0.0894

## Task Give its composite z-score value. Item: O=C(NCC(O)CO)[C@@]1(Cc2ccccc2)COC(c2ccc(OCCCO)cc2)=N1 (stereo partly specified)
## Result -0.083

## Task Repeat for the following compound: `Cc1ccc(S[C@]2(C(=O)NCC(C)C)CC(=O)N(Cc3ccccc3)[C@@H]2c2ccc(CO)cc2)cc1`
## Result -0.076
